Data credit: ChEMBL document CHEMBL3826915

Experiment: Neurotoxicity in ip dosed albino CF1 mouse assessed as motor impairment by rotorod test
Type: toxicity, organism-based
Conditions: in vivo
TD50 values for the compounds below.
Unit mg/kg implied. Number only.

{"compound": "CCCC(CC)OC(=O)NCCCn1ccnc1 (centres undefined)", "TD50, mg/kg": 86}
{"compound": "CC(COC(=O)NCCCn1ccnc1)CC(C)(C)C (centres undefined)", "TD50, mg/kg": 60}
{"compound": "O=C(NCCCn1ccnc1)OCCc1ccccc1", "TD50, mg/kg": 77}
{"compound": "CCCC(CCC)COC(=O)NCCCn1ccnc1", "TD50, mg/kg": 65}
{"compound": "CCCC(C(N)=O)C(C)CC (centres undefined)", "TD50, mg/kg": 48}

If you can, please state the reported TD50 value of CCCC(COC(=O)NCCCn1ccnc1)C(C)CC (centres undefined) .
67

What value of measured TD50 is listed for CCCC(CCC)C(=O)O ?
784

Given CCC(CC)COC(=O)NCCCn1ccnc1 , state its recorded TD50.
102

###

Test system: Mus musculus
Assay: Anticonvulsant activity in albino CF1 mouse assessed as protection against 32 mA current-induced seizure at 30 mg/kg, ip after 2 hrs by 6 Hz psychomotor test
Format: functional, organism-based
Activity calls are given as the source filed them. No cut-off for these calls is given here.
measure-name: Activity

Reference set (5 entries):
{"molecule": "CC(C)(C)COC(=O)NCCCn1ccnc1", "result": "inactive"}
{"molecule": "CCCC(CCC)COC(=O)NCCCn1ccnc1", "result": "inactive"}
{"molecule": "O=C(NCCCn1ccnc1)OCCc1ccccc1", "result": "inactive"}
{"molecule": "CCCCC(CC)COC(=O)NCCCn1ccnc1 (stereo not given)", "result": "inactive"}
{"molecule": "CCCC(CC)OC(=O)NCCCn1ccnc1 (stereo not given)", "result": "inactive"}

Would you kindly share the measured Activity for CCCC(COC(=O)NCCCn1ccnc1)C(C)CC (stereo not given) ?
inactive

I am curious: what Activity value has been reported for CC(C)(C)CCOC(=O)NCCCn1ccnc1 ?
inactive

Looking for the measured Activity of CCC(C)C(C)OC(=O)NCCCn1ccnc1 (stereo not given) , can you help?
inactive

Give its Activity value. Item: CC(COC(=O)NCCCn1ccnc1)CC(C)(C)C (stereo not given)
inactive

Entry CCC(CC)COC(=O)NCCCn1ccnc1 : reported Activity = ?
inactive

###

Assay: Clearance in human
Type: ADME, organism-based
Conditions: in vivo
measure-name: clearance
The reply should consist of the numeric value with the unit placed after it.

Which clearance reading was recorded for the compound OC(Cn1ccnc1)c1ccc(CCc2ccccc2)cc1 (stereo unspecified) ?
5 mL/min/kg

###

Test system: Mus musculus
Assay: Anticonvulsant activity in albino CF1 mouse assessed as protection against maximal electroshock-induced seizures at 30 mg/kg, ip after 0.5 hrs
Type: functional, organism-based
Calls of active or inactive are those of the source. The rule behind the calls is not given here.
Write down the outcome that applies. Available outcomes: active, inactive

Please share the test call associated with CCC(C)C(C)OC(=O)NCCCn1ccnc1 (stereo not given) .
inactive

State the result this test recorded for CCCCC(CC)COC(=O)NCCCn1ccnc1 (stereo not given) .
inactive

Outcome logged for CC(C)(C)COC(=O)NCCCn1ccnc1 in this assay:
inactive

Call for entry CCCC(CC)OC(=O)NCCCn1ccnc1 (stereo not given) :
active

Record lookup: outcome of this test for O=C(NCCCn1ccnc1)OCCc1ccccc1 ?
active
